# System: Pseudomonas aeruginosa ATCC 9027
# TEST DETAILS: ≥ marks a high value that may be exact or a test limit, other limits are often not marked, values filed in µg/mL are converted to µM
REPORTED PROPERTY: MIC (µM)
The response must be a number in µM with no trailing unit.

(Q) Return value of MIC for input CC(C)C[C@H](NC(=O)[C@H](C)NC(=O)[C@H](CC(C)C)NC(=O)[C@H](CCCCN)NC(=O)[C@H](C)NC(=O)[C@H](CC(C)C)NC(=O)[C@H](CCCCN)NC(=O)[C@H](CCCCN)NC(=O)[C@H](CC(C)C)NC(=O)[C@H](CCCCN)NC(=O)[C@H](CCCCN)NC(=O)[C@H](C)NC(=O)[C@H](CC(C)C)NC(=O)[C@H](CCCCN)NC(=O)[C@H](CCCCN)NC(=O)[C@H](C)NC(=O)[C@@H](N)Cc1ccccc1)C(=O)N[C@@H](C)C(=O)N[C@@H](CCCCN)C(N)=O , no commentary.
(A) 4.74

###

# MIC per entry for Candida albicans ATCC 10231
The response must be a number in µM with no trailing unit.

CC(C)[C@H](NC(=O)[C@H](CCCCN)NC(=O)[C@H](C)NC(=O)[C@@H](NC(=O)[C@@H](NC(=O)[C@H](CCCN=C(N)N)NC(=O)[C@H](CCCN=C(N)N)NC(=O)[C@H](Cc1c[nH]c2ccccc12)NC(=O)[C@H](Cc1c[nH]c2ccccc12)NC(=O)CN)[C@@H](C)O)C(C)C)C(=O)N[C@@H](C)C(=O)N[C@@H](CCCCN)C(N)=O
25

(Q) Return value of MIC for input CC[C@H](C)[C@H](NC(=O)[C@H](CCCCN)NC(=O)[C@H](CCCCN)NC(=O)[C@@H](N)CC(C)C)C(=O)NCC(=O)N[C@@H](CCCCN)C(=O)N[C@@H](CCCCN)C(=O)N[C@H](C(=O)N[C@@H](Cc1c[nH]c2ccccc12)C(=O)N[C@@H](CCCN=C(N)N)C(=O)N[C@H](C(=O)NCC(=O)N[C@@H](Cc1c[nH]c2ccccc12)C(=O)N[C@@H](CC(N)=O)C(=O)N[C@@H](Cc1c[nH]c2ccccc12)C(=O)N[C@@H](CCCN=C(N)N)C(=O)O)C(C)C)[C@@H](C)CC , no commentary.
(A) 61.9

###

# MIC per entry for Staphylococcus aureus
The response must be a number in µM with no trailing unit.

CC[C@H](C)[C@H](NC(=O)[C@H](CCCCN)NC(=O)[C@H](CO)NC(=O)[C@H](Cc1ccccc1)NC(=O)[C@H](CC(C)C)NC(=O)[C@H](CCCCN)NC(=O)[C@H](CCC(=O)O)NC(=O)[C@H](CC(C)C)NC(=O)[C@H](CCCN=C(N)N)NC(=O)[C@H](CCCCN)NC(=O)[C@H](Cc1ccccc1)NC(=O)[C@@H](NC(=O)[C@H](CCCCN)NC(=O)[C@H](CCCCN)NC(=O)[C@H](C)N)C(C)C)C(=O)N[C@@H](Cc1ccccc1)C(=O)N[C@@H](CC(N)=O)C(=O)N[C@@H](Cc1ccccc1)C(=O)N[C@@H](CCCCN)C(N)=O
3.13

(Q) Specify MIC for CC(C)C[C@H](NC(=O)[C@H](CCCCN)NC(=O)[C@H](CCCCN)NC(=O)[C@H](Cc1ccccc1)NC(=O)[C@H](CC(C)C)NC(=O)[C@H](CCCCN)NC(=O)[C@H](CCCCN)NC(=O)[C@H](Cc1ccccc1)NC(=O)[C@H](CCCCN)NC(=O)[C@H](CCCCN)NC(=O)[C@H](CCCN=C(N)N)NC(=O)[C@H](Cc1ccccc1)NC(=O)[C@H](CCCN=C(N)N)NC(=O)[C@H](CCCCN)NC(=O)[C@H](Cc1ccccc1)NC(=O)[C@H](CCCN=C(N)N)NC(=O)CN)C(=O)N[C@@H](CO)C(N)=O , system Staphylococcus aureus.
(A) 4
